Hey, just so you know, these numbers are from patent US20240139185A1.

Molecular target: cyclophilin A (CYPA) (Homo sapiens, UniProt P62937)
Test: CYPA-compound binary complex formation by SPR
Conditions: read-out: CYPA Binding Affinity
value-kind: Kd

Quick one: Kd for CCc1c(-c2ccccc2OC)n2c3cc(ccc13)-c1cc(O)cc(c1)C[C@H](NC(=O)[C@H](C(C)C)N(C)C(=O)C1CN(C(=O)CCl)C1)C(=O)N1CCC[C@H](N1)C(=O)OC[C@@H](C)C2 ?
> 15 µM

Note, next up: CC(C)[C@@H](C(=O)N[C@H]1Cc2cc(O)cc(c2)-c2ccc3c(C(C#N)C4CC4)cn(c3c2)C[C@H](C)COC(=O)[C@@H]2CCCN(N2)C1=O)N(C)C(=O)C1CN(C(=O)CCl)C1 (stereo partly drawn)
5 to 15 µM

Proceed to CC(C)[C@@H](C(=O)N[C@H]1Cc2cc(O)cc(c2)-c2ccc3c(-c4ccccc4Cl)cn(c3c2)CC(C)(C)COC(=O)[C@@H]2CCCN(N2)C1=O)N(C)C(=O)C1CN(C(=O)CCl)C1
> 15 µM

* * *

Tested on: pERK in H358 cells
Test: pERK inhibition in H358 cells
Format: cell-based, human
Conditions: 4 hours treatment, read-out: Cellular pERK inhibition
The following compounds are listed with their measured IC50 values.

Would you please look over these solved cases?
>>> data_value("CC(C)C(C(=O)NC1Cc2cc(O)cc(c2)-c2ccc3c(C(C)(C)C#N)cn(c3c2)CC(C(F)F)COC(=O)C2CCCN(N2)C1=O)N(C)C(=O)C1CN(C(=O)CCl)C1 (single isomer, unassigned)")
"1 to 10 µM"
>>> data_value("CC(C)[C@@H](C(=O)N[C@H]1Cc2cc(N)cc(c2)-c2ccc3c(C#N)cn(c3c2)CC(C)(C)COC(=O)[C@@H]2CCCN(N2)C1=O)N(C)C(=O)C1CN(C(=O)CCl)C1")
"> 10 µM"
>>> data_value("C=CC(=O)N1CC(C(=O)N(C)[C@H](C(=O)N[C@H]2Cc3cc(O)cc(c3)-c3ccc4c(C5CCN(C)CC5)nn(c4c3)CC(C)(C)COC(=O)[C@@H]3CCCN(N3)C2=O)C(C)C)C1")
"> 10 µM"
>>> data_value("CC1COC(=O)C2CCCN(N2)C(=O)C(NC(=O)C(C(C)C)N(C)C(=O)C2CN(C(=O)C(C)Cl)C2)Cc2cc(O)cc(c2)-c2ccc3c(C(C)(C)C#N)cn(c3c2)C1 (stereo not shown)")
"> 10 µM"
>>> data_value("CC(C)C(C(=O)NC1Cc2cc(O)cc(c2)-c2ccc3c(C(C)(C)C#N)cn(c3c2)CC(C)(C)COC(=O)C2CCCN(N2)C1=O)N1CCC2(CN(C(=O)CCl)C2)C1=O (stereo not shown)")
"1 to 10 µM"
>>> data_value("CC(C)[C@@H](C(=O)N[C@H]1Cc2cc(O)cc(c2)-c2ccc3c(S(C)(=O)=O)cn(c3c2)CCCOC(=O)[C@@H]2CCCN(N2)C1=O)N(C)C(=O)C1CN(C(=O)CCl)C1")
"> 10 µM"

Name the reported IC50 value associated with the compound CC(C)[C@@H](C(=O)N[C@H]1Cc2cc(O)cc(c2)-c2ccc3c4cc(C#N)ccc4n(c3c2)CC(C)(C)COC(=O)[C@@H]2CCCN(N2)C1=O)N(C)C(=O)C1CN(C(=O)CCl)C1
1 to 10 µM

Note, next up: CC(C)[C@@H](C(=O)N[C@H]1Cc2cc(O)cc(c2)-c2ccc3c(Cl)cn(c3c2)CC(C)(C)COC(=O)[C@@H]2CCCN(N2)C1=O)N(C)C(=O)C1CN(C(=O)CCl)C1
≤ 1 µM

Would you mind doing COCC1COC(=O)C2CCCN(N2)C(=O)C(NC(=O)C(C(C)C)N(C)C(=O)C2CN(C(=O)CCl)C2)Cc2cc(O)cc(c2)-c2ccc3c(C(C)(C)C#N)cn(c3c2)C1 (single isomer, unassigned) as well?
≤ 1 µM

Now consider CC#CC(=O)N1CC(C(=O)N(C)[C@H](C(=O)N[C@H]2Cc3cc(O)cc(c3)-c3ccc4c(c3)n(c(=O)n4C)CC(C)(C)COC(=O)[C@@H]3CCCN(N3)C2=O)C(C)C)C1 and answer again.
> 10 µM

* * *

IC50 values, listed per item
System: pERK in H358 cells
Experiment: pERK inhibition in H358 cells
Assay type: cell-based, human
Details: 4 hours treatment, read-out: Cellular pERK inhibition

Would you please look over these solved cases?
>>> data_value("COc1ccc(-c2cn3c4cc(ccc24)-c2cc(O)cc(c2)C[C@H](NC(=O)[C@H](C(C)C)N(C)C(=O)C2CN(C(=O)CCl)C2)C(=O)N2CCC[C@H](N2)C(=O)OC[C@@H](C)C3)cc1 [Compound 50]")
"1 to 10 µM"
>>> data_value("CC(C)[C@@H](C(=O)N[C@H]1Cc2cc(O)cc(c2)-c2ccc3c(C(C)(C)C#N)cn(c3c2)CC(CO)COC(=O)[C@@H]2CCCN(N2)C1=O)N(C)C(=O)C1CN(C(=O)CCl)C1 (single isomer, unassigned) [Compound 21]")
"> 10 µM"

Could you now consider this next molecule?
May I ask what IC50 has been recorded for CON=C(C)c1cn2c3cc(ccc13)-c1cc(O)cc(c1)CC(NC(=O)C(C(C)C)N(C)C(=O)C1CN(C(=O)CCl)C1)C(=O)N1CCCC(N1)C(=O)OCC(C)C2 (stereo not drawn) [Compound 73] ?
1 to 10 µM

* * *

Biological target: UniProt:P62937
Assay: CYPA-compound binary complex formation by SPR
Settings: read-out: CYPA Binding Affinity
pKd: −log10 of the molar value.
value-kind: pKd

Below, each entry is followed by its recorded pKd result.
>>> data_value("CC(C)[C@@H](C(=O)N[C@H]1Cc2cc(O)cc(c2)-c2ccc3nc(C4CCOCC4)n(c3c2)CCCOC(=O)[C@@H]2CCCN(N2)C1=O)N(C)C(=O)C1CN(C(=O)CCl)C1 [Compound 170]")
"4.82 to 5.30"
>>> data_value("CC(C)[C@@H](C(=O)N[C@H]1Cc2cc(O)cc(c2)-c2ccc3c(C#N)cn(c3n2)CC(C)(C)COC(=O)[C@@H]2CCCN(N2)C1=O)N(C)C(=O)C1CN(C(=O)CCl)C1 [Compound 176]")
"4.82 to 5.30"
>>> data_value("CC1COC(=O)C2CCCN(N2)C(=O)C(NC(=O)C(C(C)C)N(C)C(=O)C2CN(C(=O)CCl)C2)Cc2cc(O)cc(c2)-c2ccc3c(S(C)(=O)=O)cn(c3c2)C1 (single isomer, unassigned) [Compound 110]")
"≥ 5.30"

Dear colleague, I am looking for the recorded pKd of the following compound: CC[C@@H](C(=O)N[C@H]1Cc2cc(O)cc(c2)-c2ccc3c(C(C)(C)C#N)cn(c3c2)CC(C)(C)COC(=O)[C@@H]2CCCN(N2)C1=O)N(C)C(=O)C1CN(C(=O)CCl)C1 [Compound 56]
< 4.82

Moving on to the next compound: C=CC(=O)N1CCN(C(=O)N(C)[C@H](C(=O)N[C@H]2Cc3cc(O)cc(c3)-c3ccc4c(C(C)(C)C#N)cn(c4c3)CC(C)(C)COC(=O)[C@@H]3CCCN(N3)C2=O)C(C)C)CC1 [Compound 344]
4.82 to 5.30

Moving on to the next compound: CC(C)[C@@H](C(=O)N[C@H]1Cc2cc(O)cc(c2)-c2ccc3c(-c4ccnn4C)cn(c3c2)CC(C)(C)COC(=O)[C@@H]2CCCN(N2)C1=O)N(C)C(=O)C1CN(C(=O)CCl)C1 [Compound 239]
≥ 5.30

What do you have for C=CC(=O)N1CCC(C(=O)N(C)C(C(=O)NC2Cc3cc(O)cc(c3)-c3ccc4c(c3)c(c(C#N)n4CCOC)CC(C)(C)COC(=O)C3CCCN(N3)C2=O)C(C)C)C1 (stereo not shown) [Compound 400] ?
4.82 to 5.30

How about CNC(=O)c1cn2c3cc(ccc13)-c1cc(O)cc(c1)C[C@H](NC(=O)[C@H](C(C)C)N(C)C(=O)C1CN(C(=O)CCl)C1)C(=O)N1CCC[C@H](N1)C(=O)OCC(C)(C)C2 [Compound 108] ?
4.82 to 5.30

# repeat for C=CC(=O)N1CCC1C(=O)N(C)C(C(=O)NC1Cc2cc(O)cc(c2)-c2ccc3c(C(F)F)nn(c3c2)CC(C)COC(=O)C2CCCN(N2)C1=O)C(C)C (stereo not shown) [Compound 204]
4.82 to 5.30

Similarly, CC(C)[C@@H](C(=O)N[C@H]1Cc2cc(O)cc(c2)-c2ccc3c(S(C)(=O)=O)cn(c3c2)CCCOC(=O)[C@@H]2CCCN(N2)C1=O)N(C)C(=O)C1CN(C(=O)CCl)C1 [Compound 102] ?
4.82 to 5.30

* * *

Molecular target: BRAF-GTP-KRAS-G12C complex (Homo sapiens, UniProt P01116+P62937, G12C)
Construct: 50 nM of His6-KRas G12C-GTP (1-169); 500 nM of tagless CypA (1-165)
Experiment: KRAS-BRAF complex disruption through competition with CYPA-compound by TR-FRET
Conditions: biochemical BRAF-KRAS G12C-GTP disruption assay EC50, with CYPA
# reported EC50; entries follow

Would you kindly share the measured EC50 for CCN1CCCN2C[C@H](C)COC(=O)[C@@H]3CCCN(N3)C(=O)[C@@H](NC(=O)[C@H](C(C)C)N(C)C(=O)C3CN(C(=O)CCl)C3)Cc3cc(O)cc(c3)-c3ccc1c2c3 ?
> 5 µM
